# Run Description: DRUGMATRIX: Atrial Natriuretic Factor (ANF) radioligand binding (ligand: [125I] ANF (rat))
# Type: cell membranes, Cavia porcellus, Dunkin-Hartley, Adrenal gland, Membrane
# Particulars: Not Active = under 50% inhibition at 10 µM
Property Label: Ki

>  <Compound>
CN(CCOc1ccc(C[C@H](Nc2ccccc2C(=O)c2ccccc2)C(=O)O)cc1)c1ccccn1

>  <Value>
Not Active

$$$$
>  <Compound>
CO[C@H]1O[C@@H]2O[C@@]3(C)CC[C@H]4[C@H](C)CC[C@@H]([C@H]1C)[C@@]24OO3

>  <Value>
Not Active

$$$$
>  <Compound>
O=C(O)COC(=O)Cc1ccccc1Nc1c(Cl)cccc1Cl

>  <Value>
Not Active

$$$$
>  <Compound>
ClC1=C(Cl)[C@]2(Cl)[C@@H]3[C@@H]4C[C@@H]([C@H]5O[C@@H]45)[C@@H]3[C@@]1(Cl)C2(Cl)Cl

>  <Value>
Not Active

$$$$
>  <Compound>
Cc1cccc(C)c1NC(=O)C(C)N (centres undefined) [TOCAINIDE]

>  <Value>
Not Active

$$$$
>  <Compound>
C=CCO

>  <Value>
Not Active

$$$$
>  <Compound>
CC(N)C12CC3CC(CC(C3)C1)C2 (centres undefined)

>  <Value>
Not Active

$$$$
>  <Compound>
Oc1ncnc2[nH]ncc12

>  <Value>
Not Active

$$$$
>  <Compound>
O=C1CN(/N=C/c2ccc([N+](=O)[O-])o2)C(=O)N1

>  <Value>
Not Active

$$$$
>  <Compound>
CCO

>  <Value>
Not Active

$$$$
>  <Compound>
O=C(NCCN1CCOCC1)c1ccc(Cl)cc1 [MOCLOBEMIDE]

>  <Value>
Not Active

$$$$
>  <Compound>
CN1C[C@H](CNC(=O)OCc2ccccc2)C[C@@H]2c3cccc4c3c(cn4C)C[C@H]21

>  <Value>
Not Active

$$$$
>  <Compound>
O=C(O)CCc1nc(-c2ccccc2)c(-c2ccccc2)o1

>  <Value>
Not Active

$$$$
>  <Compound>
O=C(Nc1ccc(Cl)c(Cl)c1)c1cc(Cl)cc(Cl)c1O [3,3',4',5-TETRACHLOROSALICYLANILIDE]

>  <Value>
Not Active

$$$$
>  <Compound>
CCC1(c2ccccc2)C(=O)NC(=O)NC1=O

>  <Value>
Not Active

$$$$
>  <Compound>
COc1ccccc1OCCNCC(O)COc1cccc2[nH]c3ccccc3c12 (centres undefined)

>  <Value>
Not Active

$$$$
>  <Compound>
COc1cc([C@@H]2c3cc4c(cc3[C@H](O)[C@H]3COC(=O)[C@H]23)OCO4)cc(OC)c1OC

>  <Value>
Not Active

$$$$
>  <Compound>
CC#C[C@]1(O)CC[C@H]2[C@@H]3CCC4=CC(=O)CCC4=C3[C@@H](c3ccc(N(C)C)cc3)C[C@@]21C

>  <Value>
Not Active

$$$$
>  <Compound>
c1ccc(Cn2ccnc2)cc1

>  <Value>
Not Active

$$$$
